TEST SUMMARY: Human plasma stability
Format: in vitro ADME
SETUP CONDITIONS: 37° C., 1 μM final incubation concentration, parent compound by LC-MS-MS
Task for the reader: assign each of the following compounds its reported half-life at 1 μM.
One number for each entry, in s.

CCOCc1nc2c(N)nc3ccccc3c2n1CCCN(Cc1cccc(CC(=O)OC)c1)C(=O)CN(C)C [Comparative Example 1, reference compound] = 42

Turning now to a further record.
Value of measured half-life at 1 μM for the entry `CCOCc1nc2c(N)nc3ccccc3c2n1CCCCN(Cc1cccc(CC(=O)OC)c1)C(=O)CN(CC)CC` : 18

* * *

TEST SUMMARY: Cynomolgous monkey plasma stability
Assay type: in vitro ADME
SETUP CONDITIONS: 37° C., 1 μM final incubation concentration, parent compound by LC-MS-MS
QUANTITY: half-life at 1 μM (min)
Give bare numbers, in min.

CCOCc1nc2c(N)nc3ccccc3c2n1CCCCN(Cc1cccc(CC(=O)OC)c1)C(=O)CN(CC)CC [Compound (I)] = 1.2

Value of measured half-life at 1 μM for the entry CCOCc1nc2c(N)nc3ccccc3c2n1CCCN(Cc1cccc(CC(=O)OC)c1)C(=O)CN(C)C [Comparative Example 1, reference compound] : 11
